# Assayed system: Beta-secretase 1 (Homo sapiens, UniProt P56817)
# Sequence (P56817 whole entry): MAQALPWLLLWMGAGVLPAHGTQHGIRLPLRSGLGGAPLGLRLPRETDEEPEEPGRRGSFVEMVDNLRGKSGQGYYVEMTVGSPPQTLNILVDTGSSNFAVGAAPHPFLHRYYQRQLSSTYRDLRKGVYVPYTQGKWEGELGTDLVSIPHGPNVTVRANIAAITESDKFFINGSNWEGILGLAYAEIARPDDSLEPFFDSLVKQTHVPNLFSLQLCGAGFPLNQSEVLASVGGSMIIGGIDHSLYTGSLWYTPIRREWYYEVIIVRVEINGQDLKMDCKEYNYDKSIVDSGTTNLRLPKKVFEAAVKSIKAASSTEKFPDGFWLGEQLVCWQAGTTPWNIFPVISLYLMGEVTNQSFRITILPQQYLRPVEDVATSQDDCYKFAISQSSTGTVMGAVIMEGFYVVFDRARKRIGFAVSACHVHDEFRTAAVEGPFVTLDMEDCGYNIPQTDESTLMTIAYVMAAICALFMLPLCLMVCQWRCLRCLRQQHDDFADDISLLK
# Test: Inhibition of BACE1 assessed as amyloid beta (1-40) production
Item-by-item account of IC50

Structure smiles string	Assayed system	IC50
NC1=Nc2cnc3cc2CN1[C@H](C1CCCCC1)CCC(=O)N(C1CCCCC1)CCc1cccc(c1)O3	Beta-secretase 1 (Homo sapiens, UniProt P56817)	7 nM
CC(C)[C@@H]1CCC(=O)N(C2CCOCC2)CCc2cccc(c2)Oc2ccc3c(c2)CN1C(N)=N3	Beta-secretase 1 (Homo sapiens, UniProt P56817)	685 nM
NC1=Nc2cc(F)c3cc2CN1[C@H](C1CCCCC1)CCC(=O)N(C1CCCCC1)CCc1cccc(c1)O3	Beta-secretase 1 (Homo sapiens, UniProt P56817)	30 nM

###

# Assayed system: Beta-secretase 1 (Homo sapiens)

Structure smiles string	Ki / nM
NC1=Nc2cnc3cc2CN1[C@H](C1CCCCC1)CCC(=O)N(C1CCCCC1)CCc1cccc(c1)O3	5

The reported measurements were obtained from ChEMBL document CHEMBL1157115.
